Entry source: PubChem BioAssay

Assay: viability loss with induced miR-34 in A549 – imaging, A549 dox-inducible miR-34, nuclei and caspase counts, primary screen (AID 1347080); also: test concentration not given here
Settings: A549 miR-34 inducible, Hoechst nuclei count, 48 h; stronger effect = lower value; cell number ratio, induced over uninduced
readout kind: fold change
Lab note: jot down the number only; don't add units.

Check the records and state fold change for "C[C@H]([C@H](C)N1CC(=O)NC(=O)C1)N1CC(=O)NC(=O)C1"
0.938

Check the records and state fold change for "CC(C)(C)Nc1nc(N)c(C(=O)c2ccccc2)s1"
0.899

Check the records and state fold change for NCCC(O)C(=O)NC1CC(N)C(OC2OC(CN)C(O)C(O)C2O)C(O)C1OC1OC(CO)C(O)C(N)C1O (centres undefined)
0.888

Check the records and state fold change for "O=C(c1ccc(C=Cc2n[nH]c3ccccc23)cc1)N1CCNCC1"
0.879
